B1: Chromodomain-helicase-DNA-binding protein 3, residues 374 to 426; numbered along this chain, Q12873 (parent)
chain: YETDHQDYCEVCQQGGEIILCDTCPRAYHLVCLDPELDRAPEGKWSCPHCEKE

Variants of: B1
experimental details: abundance fitness (aPCA) (normalised: wild type 0, dead -1); higher = more abundant; growth selection in yeast, the domain comes from the species named
measurement parameters: Homo sapiens
Decision: abundance fitness >= -0.2 yields yes (1), all other cases yield no (0).

Reference set, count: 5
INSERT INTO assay_data (mutation_id, assigned_class) VALUES
  ('T23D', 'no (0)'),
  ('E17N', 'yes (1)'),
  ('Q14P', 'no (0)'),
  ('V31F', 'yes (1)'),
  ('E36M', 'yes (1)');

Evaluate "E2L" : abundance fitness at minimum -0.2?
yes (1)

Is the recorded value of abundance fitness equal to or greater than -0.2 for this variant? "Y1N"
no (0)

Evaluate "Y28G" : abundance fitness at minimum -0.2?
yes (1)

Please tell me: is the variant "G15K" at or over -0.2 in terms of abundance fitness?
yes (1)

In plain terms: is recorded abundance fitness at least -0.2 for "Q13W" ?
no (0)

Is abundance fitness for "H29C" at or above -0.2?
yes (1)

Entry "Y28F" : is its abundance fitness no less than -0.2?
yes (1)

Record "D22I" ; criterion: abundance fitness no lower than -0.2. Met?
yes (1)

Evaluate "L37S" : abundance fitness at minimum -0.2?
no (0)

API: above_or_equal(metric=abundance fitness, cutoff=-0.2) for item "T23K"
no (0)

Check the entry "L30F" : does abundance fitness equal or exceed -0.2?
yes (1)
